# SYSTEM: fusion protein PRH
# Sequence (chain, as listed by the source): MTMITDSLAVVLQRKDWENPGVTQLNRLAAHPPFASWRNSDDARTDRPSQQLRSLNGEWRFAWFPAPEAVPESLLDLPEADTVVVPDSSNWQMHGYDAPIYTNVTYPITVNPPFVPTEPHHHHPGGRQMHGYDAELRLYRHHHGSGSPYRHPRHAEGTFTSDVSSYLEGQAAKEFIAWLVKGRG
MEASURE_NAME: relative cleavage efficiency

Record excerpt, results attached:
PROTEIN: OmpT protease variant OmpT D97F (protein) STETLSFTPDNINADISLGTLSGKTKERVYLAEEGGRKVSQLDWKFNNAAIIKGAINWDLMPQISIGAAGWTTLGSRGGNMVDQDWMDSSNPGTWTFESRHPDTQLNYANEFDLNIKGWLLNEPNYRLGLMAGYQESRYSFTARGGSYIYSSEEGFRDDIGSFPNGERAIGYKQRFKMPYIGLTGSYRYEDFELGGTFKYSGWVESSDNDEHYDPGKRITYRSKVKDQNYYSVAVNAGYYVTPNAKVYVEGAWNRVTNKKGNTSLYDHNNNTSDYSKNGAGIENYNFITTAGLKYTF
relative cleavage efficiency: less than 3%

PROTEIN: OmpT protease variant OmpT D97R (protein) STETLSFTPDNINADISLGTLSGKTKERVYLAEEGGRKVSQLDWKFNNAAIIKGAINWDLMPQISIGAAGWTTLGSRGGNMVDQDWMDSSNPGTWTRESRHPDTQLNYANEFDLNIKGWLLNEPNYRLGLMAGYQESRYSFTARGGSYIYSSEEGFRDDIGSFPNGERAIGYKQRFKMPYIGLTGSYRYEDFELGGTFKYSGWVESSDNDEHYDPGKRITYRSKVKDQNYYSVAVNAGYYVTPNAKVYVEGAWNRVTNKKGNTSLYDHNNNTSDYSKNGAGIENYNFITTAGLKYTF
relative cleavage efficiency: less than 3.0%

PROTEIN: OmpT protease variant OmpT D97I (protein) STETLSFTPDNINADISLGTLSGKTKERVYLAEEGGRKVSQLDWKFNNAAIIKGAINWDLMPQISIGAAGWTTLGSRGGNMVDQDWMDSSNPGTWTIESRHPDTQLNYANEFDLNIKGWLLNEPNYRLGLMAGYQESRYSFTARGGSYIYSSEEGFRDDIGSFPNGERAIGYKQRFKMPYIGLTGSYRYEDFELGGTFKYSGWVESSDNDEHYDPGKRITYRSKVKDQNYYSVAVNAGYYVTPNAKVYVEGAWNRVTNKKGNTSLYDHNNNTSDYSKNGAGIENYNFITTAGLKYTF
relative cleavage efficiency: less than 3.0%

PROTEIN: OmpT protease variant OmpT D97S (protein) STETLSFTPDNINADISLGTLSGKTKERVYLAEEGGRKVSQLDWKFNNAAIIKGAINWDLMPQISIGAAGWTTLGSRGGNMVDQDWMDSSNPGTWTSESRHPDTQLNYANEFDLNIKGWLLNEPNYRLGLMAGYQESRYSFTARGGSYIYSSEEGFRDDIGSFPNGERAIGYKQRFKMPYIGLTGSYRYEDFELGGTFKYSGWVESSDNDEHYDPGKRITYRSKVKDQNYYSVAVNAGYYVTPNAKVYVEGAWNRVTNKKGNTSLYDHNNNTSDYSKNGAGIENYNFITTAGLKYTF
relative cleavage efficiency: less than 3%

PROTEIN: OmpT protease variant OmpT D97Q (protein) STETLSFTPDNINADISLGTLSGKTKERVYLAEEGGRKVSQLDWKFNNAAIIKGAINWDLMPQISIGAAGWTTLGSRGGNMVDQDWMDSSNPGTWTQESRHPDTQLNYANEFDLNIKGWLLNEPNYRLGLMAGYQESRYSFTARGGSYIYSSEEGFRDDIGSFPNGERAIGYKQRFKMPYIGLTGSYRYEDFELGGTFKYSGWVESSDNDEHYDPGKRITYRSKVKDQNYYSVAVNAGYYVTPNAKVYVEGAWNRVTNKKGNTSLYDHNNNTSDYSKNGAGIENYNFITTAGLKYTF
relative cleavage efficiency: less than 3%

PROTEIN: OmpT protease variant OmpT D97T (protein) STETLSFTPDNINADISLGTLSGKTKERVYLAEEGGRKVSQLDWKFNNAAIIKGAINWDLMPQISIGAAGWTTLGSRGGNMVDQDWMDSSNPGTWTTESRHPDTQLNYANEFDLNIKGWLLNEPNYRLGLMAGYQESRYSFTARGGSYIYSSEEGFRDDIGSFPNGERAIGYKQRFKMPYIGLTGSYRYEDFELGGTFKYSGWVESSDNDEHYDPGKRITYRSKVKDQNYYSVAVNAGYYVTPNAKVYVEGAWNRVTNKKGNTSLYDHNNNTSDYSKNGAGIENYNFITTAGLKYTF
relative cleavage efficiency: less than 3%

PROTEIN: OmpT protease (wild-type, E. coli mature OmpT protease) (protein) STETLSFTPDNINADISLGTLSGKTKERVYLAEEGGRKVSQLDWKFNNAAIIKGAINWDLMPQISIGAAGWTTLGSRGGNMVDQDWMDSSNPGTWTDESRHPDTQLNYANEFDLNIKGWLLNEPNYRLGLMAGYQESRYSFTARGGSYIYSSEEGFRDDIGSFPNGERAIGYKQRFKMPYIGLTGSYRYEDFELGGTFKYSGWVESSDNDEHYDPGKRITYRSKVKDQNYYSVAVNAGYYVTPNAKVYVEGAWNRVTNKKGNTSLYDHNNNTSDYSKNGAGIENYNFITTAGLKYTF
relative cleavage efficiency: less than 3%

Exercise: What value of relative cleavage efficiency has been recorded for this entry: OmpT protease variant OmpT D97L (protein) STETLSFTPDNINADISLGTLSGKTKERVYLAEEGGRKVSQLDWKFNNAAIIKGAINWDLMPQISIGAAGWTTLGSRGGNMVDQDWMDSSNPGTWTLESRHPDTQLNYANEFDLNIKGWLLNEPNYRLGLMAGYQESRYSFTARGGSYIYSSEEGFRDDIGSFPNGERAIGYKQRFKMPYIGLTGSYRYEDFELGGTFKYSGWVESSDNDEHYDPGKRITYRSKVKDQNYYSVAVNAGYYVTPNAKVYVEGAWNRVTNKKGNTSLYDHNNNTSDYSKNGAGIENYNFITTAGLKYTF
Key: less than 3%
